Biological target: DNA repair protein RAD52 homolog (Homo sapiens)
Sequence (P43351 whole entry): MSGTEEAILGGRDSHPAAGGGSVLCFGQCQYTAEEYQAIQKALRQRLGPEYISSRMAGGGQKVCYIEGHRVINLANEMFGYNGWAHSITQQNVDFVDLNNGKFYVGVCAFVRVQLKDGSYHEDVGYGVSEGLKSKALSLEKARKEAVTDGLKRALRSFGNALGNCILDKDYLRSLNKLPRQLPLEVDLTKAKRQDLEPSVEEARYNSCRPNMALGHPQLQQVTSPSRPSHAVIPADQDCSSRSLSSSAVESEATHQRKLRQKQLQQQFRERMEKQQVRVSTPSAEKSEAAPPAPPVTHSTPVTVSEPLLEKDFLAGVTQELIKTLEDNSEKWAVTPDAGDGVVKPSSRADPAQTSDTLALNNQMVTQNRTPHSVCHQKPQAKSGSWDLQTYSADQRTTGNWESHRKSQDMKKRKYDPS
Type: functional, biochemical
Activity calls are given as the source filed them.
parameter: AC50

# compound, AC50
data = [
    ("CCN(CC)CCCNc1[nH]c2ccccc2c2nc3ccc(OC)cc3c1-2", "< 0.15 µM (active)"),
    ("CN1CCN(C2Cc3ccccc3Sc3ccc(Cl)cc32)CC1 (stereo unspecified)", "22.5 µM (active)"),
    ("CCN1CCN(CCNC(=O)c2ccc3nc(-c4cccc(C)c4)c(-c4cccc(C)c4)nc3c2)CC1", "13.5 µM (active)"),
    ("CC(=O)Nc1cc(-c2ccc(N3CCN(C)CC3)cc2)cn2c(-c3cccc(C(C)=O)c3)cnc12", "4.9 µM (active)"),
    ("Cc1ccc2c(C)c3ccc4ccccc4c3c[n+]2c1.[O-][Cl+3]([O-])([O-])[O-]", "1.34 µM (active)"),
]

Please look at the following compound next.
**Q:** State the recorded AC50 for this entry: `CCN(CC)CCNc1ncnc2c1sc1nc(N3CCCC3)c3c(c12)CC(C)(C)OC3`
**A:** 4.72 µM (active)
